All values here come from patent US20140087995A1.

targetOrSystem: T1, rat calcitonin receptor (rat, UniProt P32214 25-516)
T1 construct: whole, on cells; Membranes of BHK tk'ts 13 cells transiently transfected with the rat calcitonin receptor; also called rCTR; rat calcitonin (a) receptor
T1 sequence (looked up): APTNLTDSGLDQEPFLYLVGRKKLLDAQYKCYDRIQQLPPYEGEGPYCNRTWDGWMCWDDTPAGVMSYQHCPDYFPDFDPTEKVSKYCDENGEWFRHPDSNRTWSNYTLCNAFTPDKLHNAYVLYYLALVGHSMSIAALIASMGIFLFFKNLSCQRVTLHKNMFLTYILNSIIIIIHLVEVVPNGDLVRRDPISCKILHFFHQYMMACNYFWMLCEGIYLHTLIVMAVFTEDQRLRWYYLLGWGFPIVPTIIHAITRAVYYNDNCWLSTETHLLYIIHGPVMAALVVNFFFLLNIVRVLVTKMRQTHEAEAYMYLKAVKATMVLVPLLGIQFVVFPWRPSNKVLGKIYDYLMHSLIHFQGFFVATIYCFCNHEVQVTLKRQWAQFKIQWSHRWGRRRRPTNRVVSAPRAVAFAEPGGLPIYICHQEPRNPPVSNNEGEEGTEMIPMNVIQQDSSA
testDetails: IC50 at rCTR divided by IC50 at rAmylin-R (reference)
We begin with a simple list: items and their reported Ratio rCT/rAmylin binding.
Answer with a number only.

Please report the recorded Ratio rCT/rAmylin binding for KCNTATCATQRLANFLRHSSPNFGAIPSSTNVGRNTY (C20 diacid-gGlu on the alpha amino group of the N-terminal residue (Lys 1); disulfide bridge Cys2-Cys7; C-terminal amide, modifications are with respect to human amylin; also called compound 39) [N^α1-[(4S)-4-carboxy-4-(19-carboxynonadecanoylamino)butanoyl]-[Arg17,Pro21,Pro27,Arg34]-h-amylin] .
54.5

Please report the recorded Ratio rCT/rAmylin binding for KCNTATCATQRLANFLRHSSPNFGAIPSSTNVGSNTY (C20 diacid-gGlu-2xOEG on the alpha amino group of the N-terminal residue (Lys 1); disulfide bridge Cys2-Cys7; C-terminal amide, modifications are with respect to human amylin; also called compound 24) .
116

Please report the recorded Ratio rCT/rAmylin binding for KCNTATCATQRLANFLRHSSPNFGAIPSSTNVGSKTY (C20 diacid-gGlu on the alpha amino group of the N-terminal residue (Lys 1); disulfide bridge Cys2-Cys7; C-terminal amide, modifications are with respect to human amylin; also called compound 34) [N^α1-[(4S)-4-carboxy-4-(19-carboxynonadecanoylamino)butanoyl]-[Arg17,Pro21,Pro27,Lys35]-h-amylin] .
52
